Test system: Pseudomonas aeruginosa
Assay comment: MIC, CLSI broth microdilution, Pseudomonas aeruginosa panel
Type: cell-based
Measurement conditions: Pseudomonas aeruginosa, P. aeruginosa strain 24 (susceptible); read-out: MIC
MIC for assorted molecules

# input molecule: NC[C@H]1O[C@H](O[C@H]2[C@H](O)[C@@H](O[C@H]3O[C@H](CO)[C@@H](O)[C@H](N)[C@H]3O)[C@H](N)C[C@@H]2N)[C@H](N)C[C@@H]1O [TOB, tobramycin] ; wanted: its MIC ≤ 1 µg/mL

Same question for NCC[C@H](O)C(=O)N[C@@H]1C[C@H](N)[C@@H](O[C@H]2O[C@H](CNCCO)[C@@H](O)C[C@H]2N)[C@H](O[C@@H]2O[C@H](CO)[C@@H](O[C@H]3O[C@@H](CN)[C@@H](O)[C@H](O)[C@H]3N)[C@H]2O)[C@H]1O [Compound 18] please. ≤ 1 µg/mL

Same question for NC[C@@H]1O[C@H](O[C@H]2[C@@H](O)[C@H](O[C@@H]3[C@@H](O)[C@H](NC(=O)[C@@H](O)CN)C[C@H](N)[C@H]3O[C@H]3O[C@H](CNCCO)[C@@H](O)C[C@H]3N)O[C@@H]2CO)[C@H](N)[C@@H](O)[C@@H]1O [Compound 20] please. ≤ 1 µg/mL

Further cases:
# input molecule: NCC[C@H](O)C(=O)N[C@@H]1C[C@H](N)[C@@H](O[C@H]2O[C@H](CN)[C@@H](O)[C@H](O)[C@H]2O)[C@H](O)[C@H]1O[C@H]1O[C@H](CO)[C@@H](O)[C@H](N)[C@H]1O [AMK, amikacin] ; wanted: its MIC 1 to 8 µg/mL

###

Tested on: Acinetobacter baumannii
Assay comment: MIC, CLSI broth microdilution, Acinetobacter baumannii panel
Format: cell-based
Measurement conditions: Acinetobacter baumannii, A. baumannii clinical strain 1 (resistant clinical isolate); read-out: MIC
MIC for assorted compounds

# input compound: NCC[C@H](O)C(=O)N[C@@H]1C[C@H](N)[C@@H](O[C@H]2O[C@H](CN)[C@@H](O)[C@H](O)[C@H]2O)[C@H](O)[C@H]1O[C@H]1O[C@H](CO)[C@@H](O)[C@H](N)[C@H]1O ; wanted: its MIC ≥ 32 µg/mL

Same question for NCC[C@H](O)C(=O)N[C@@H]1C[C@H](N)[C@@H](O[C@H]2O[C@H](CNCCO)[C@@H](O)C[C@H]2N)[C@H](O[C@@H]2O[C@H](CO)[C@@H](O[C@H]3O[C@@H](CN)[C@@H](O)[C@H](O)[C@H]3N)[C@H]2O)[C@H]1O please. 1 to 8 µg/mL

Same question for NC[C@H]1O[C@H](O[C@H]2[C@H](O)[C@@H](O[C@H]3O[C@H](CO)[C@@H](O)[C@H](N)[C@H]3O)[C@H](N)C[C@@H]2N)[C@H](N)C[C@@H]1O please. ≥ 32 µg/mL

Same question for NC[C@@H]1O[C@H](O[C@H]2[C@@H](O)[C@H](O[C@@H]3[C@@H](O)[C@H](NC(=O)[C@@H](O)CN)C[C@H](N)[C@H]3O[C@H]3O[C@H](CNCCO)[C@@H](O)C[C@H]3N)O[C@@H]2CO)[C@H](N)[C@@H](O)[C@@H]1O please. 1 to 8 µg/mL

###

System: Acinetobacter baumannii
Assay comment: MIC, CLSI broth microdilution, Acinetobacter baumannii panel
Type: cell-based
Measurement conditions: Acinetobacter baumannii, A. baumannii clinical strain 11 (resistant clinical isolate); read-out: MIC
MIC for assorted molecules

# input molecule: NCC[C@H](O)C(=O)N[C@@H]1C[C@H](N)[C@@H](O[C@H]2O[C@H](CN)[C@@H](O)[C@H](O)[C@H]2O)[C@H](O)[C@H]1O[C@H]1O[C@H](CO)[C@@H](O)[C@H](N)[C@H]1O ; wanted: its MIC ≥ 32 µg/mL

Origin of values: patent US8653041B2
